Molecular target: Factor Xa (#1063-SE-010, R&D Systems) (UniProt P00742 41-488, limits assumed)
Sequence (P00742 41-488 limits assumed): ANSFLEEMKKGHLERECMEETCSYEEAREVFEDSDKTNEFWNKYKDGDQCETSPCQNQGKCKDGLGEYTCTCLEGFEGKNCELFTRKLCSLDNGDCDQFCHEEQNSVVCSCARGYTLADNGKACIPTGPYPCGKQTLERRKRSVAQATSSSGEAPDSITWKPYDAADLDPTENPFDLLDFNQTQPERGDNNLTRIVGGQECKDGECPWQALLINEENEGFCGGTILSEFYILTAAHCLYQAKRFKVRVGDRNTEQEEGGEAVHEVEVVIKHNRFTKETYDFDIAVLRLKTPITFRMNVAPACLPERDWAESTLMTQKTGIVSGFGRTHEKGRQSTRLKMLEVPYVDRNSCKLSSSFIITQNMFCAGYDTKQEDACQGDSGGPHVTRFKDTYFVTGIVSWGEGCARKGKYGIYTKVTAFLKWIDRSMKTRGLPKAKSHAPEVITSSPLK
Experiment: cell-based or functional assay
Positions of bridges follow the written chain, without caps; N, C: chain ends. kbt = C-terminal Arg ketobenzothiazole
Measured Factor Xa* (IC50 nM) by item

>  <binder>
Ac-GQFR-kbt [MM3122 Ac-GQFR-kbt]

>  <quantity.unit>
nM

>  <inequality.symbol>
=

>  <Factor Xa* (IC50 nM)>
700

$$$$
>  <binder>
Ac-LQFR-kbt [MM3131 Ac-LQFR-kbt]

>  <quantity.unit>
nM

>  <inequality.symbol>
=

>  <Factor Xa* (IC50 nM)>
219

$$$$
>  <binder>
Ac-Gln-Phe-Arg-kbt [MM3144 Ac-QFR-kbt]

>  <quantity.unit>
nM

>  <inequality.symbol>
=

>  <Factor Xa* (IC50 nM)>
1.4

$$$$
>  <binder>
Ac-PQFR-kbt [MM3123 Ac-PQFR-kbt]

>  <quantity.unit>
nM

>  <inequality.symbol>
=

>  <Factor Xa* (IC50 nM)>
199

$$$$
>  <binder>
Ac-DQKR-kbt (lactam 1-3; also: N-terminal acetyl described as 6-acetamido) [Cyclo(DQK)R-kbt, VD3152]

>  <quantity.unit>
nM

>  <inequality.symbol>
>

>  <Factor Xa* (IC50 nM)>
20000

$$$$
>  <binder>
Ac-DLKR-kbt (lactam 1-3; not fully specified; printed as Cyclo(DLK)R-kbt; also: N-terminal acetyl described as 6-acetamido) [Cyclo(DLK)R-kbt, VD2173]

>  <quantity.unit>
nM

>  <inequality.symbol>
=

>  <Factor Xa* (IC50 nM)>
564

$$$$

Source of measurements: patent US20220380407A1
